# targetOrTestSystem: T1, cynomolgus soluble urokinase plasminogen activator receptor (cynomolgus suPAR) (cynomolgus, UniProt Q9GK78 23-303, limits assumed)
# T1 construct: also called cynomolgus uPAR; cynoPLAUR-His
# T1 sequence (Q9GK78 23-303 limits assumed): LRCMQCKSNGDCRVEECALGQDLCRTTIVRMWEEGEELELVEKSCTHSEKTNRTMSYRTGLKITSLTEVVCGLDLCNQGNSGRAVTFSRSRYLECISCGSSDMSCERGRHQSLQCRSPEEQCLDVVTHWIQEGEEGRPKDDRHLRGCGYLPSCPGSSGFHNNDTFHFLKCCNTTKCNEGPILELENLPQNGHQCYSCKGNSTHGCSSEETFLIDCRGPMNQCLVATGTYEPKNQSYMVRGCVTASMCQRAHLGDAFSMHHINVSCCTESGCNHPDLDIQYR
# protocolText: off-rate screen of scFv clones (kdis), Octet BLI
readoutType: koff (s⁻¹)
Answer in s⁻¹, number only, no unit symbol.

* suPAR_DB04_D07 (scFv, V domains shown, scFv clone from phage display) VH: QVQLVQSGAEVKKPGASVKVSCKASGYTFGSYYMHWVRQAPGQGLEWMGWIDHENGNTIYDQKFQGRVTMTRDTSTSTVYMELSSLRSEDTAVYYCARGYDVDWFVYWGQGTLVTVSS VL: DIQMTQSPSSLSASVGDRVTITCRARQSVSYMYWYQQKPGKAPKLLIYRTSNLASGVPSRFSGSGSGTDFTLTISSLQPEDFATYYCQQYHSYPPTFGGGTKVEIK | 0.000436

Query: Fill in: koff of suPAR_DB04_E06 (scFv, V domains shown, scFv clone from phage display) VH: QVQLVQSGAEVKKPGASVKVSCKASGYSFTSHYMHWVRQAPGQGLEWMGWIDHENGNTIYDQKFQGRVTMTRDTSTSTVYMELSSLRSEDTAVYYCARGYDVDWFVYWGQGTLVTVSS VL: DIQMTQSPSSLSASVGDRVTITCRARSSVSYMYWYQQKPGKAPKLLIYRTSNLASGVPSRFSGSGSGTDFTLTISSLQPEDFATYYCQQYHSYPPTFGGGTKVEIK is ___
Response: 0.000137

Query: Here is the next binder: suPAR_DB04_C02 (scFv, V domains shown, scFv clone from phage display) VH: QVQLVQSGAEVKKPGASVKVSCKASGNTFIGYYVHWVRQAPGQGLEWMGWIDHENGNTSYDQKFQGRVTMTRDTSTSTVYMELSSLRSEDTAVYYCARGNDVDWFVYWGQGTLVTVSS VL: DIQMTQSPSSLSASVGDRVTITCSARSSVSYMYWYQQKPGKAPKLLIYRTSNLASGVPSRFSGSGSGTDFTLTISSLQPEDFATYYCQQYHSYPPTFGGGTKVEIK
Response: 0.000146
